Exercise: state measured Tagg for each of the molecules provided.
# assay-name: Thermostability (Tm, Tonset, Tagg) by Nanotemper DSF
# Assay type: physicochemical
# Design: key: temperatures in °C
# condition-info: anti-Der p2 VHH; 20° C.-95° C. at 1° C./min
One number for each entry.

// solved cases for Tagg follow
molecule | Tagg
SDAB22111-1-F9-B03 (VHH, anti-Der p2 alpaca VHH; prokaryotic expression) VHH: EVQLVESGGGLVQPGGSLRLSCAASGRTFSSYAMGWFRQAPGKEREFVAGISRRGSNIYYADSVKGRFTISRDNAKNTVYLQMNSLKPEDTAVYYCNARHPRISTRLYWGQGTQVTVSS | 40.04
SDAB22111-1-D6 (VHH, anti-Der p2 alpaca VHH; prokaryotic expression) VHH: DVQLVESGGGLVQPGGSLRLSCVASGLTFSYYDMKWHRQAPGKERELVAAIIEGGRTMYADSVKGRFTISRDSPKKSVYLQMNNLKSEDTAVYYCNAVRARFRGLGNDDAWGQGTQVTVSS | 41.57
SDAB22111-1-H12 (VHH, anti-Der p2 alpaca VHH; prokaryotic expression) VHH: QVQLVESGGGLVQPGGSLRLSCAASRSIDRFPAMGWYRQAPGKKRELVAAISSANTRTKYADSVKGRFTISRDNAENTMYLQMNSLKPEDTAVYYCNVFPRPVQGYWGQGTQVTVSS | 43.37
SDAB22111-1-C1 (VHH, anti-Der p2 alpaca VHH; prokaryotic expression) VHH: QVQLVESGGGLVQPGGSLRLSCAASASFVGAYAMYWFRQATGKQRELVAFITSGNSTNYADSVKGRFTISRDYTKNTVYLQMNKLKPEDTAVYSCNLVTSRGDYWGQGTQVTVSS | 43.53

Please turn your attention to the following entry.
Request: Output Tagg of SDAB22111-1-D3 (VHH, anti-Der p2 alpaca VHH; prokaryotic expression) VHH: QLQLVESGGGLVQPGGSLRLSCVVSGRTLSGHNMGWFRQAPGKEREFVARINSNGGTTRYADAVKGRFTISRDNAKNTAYLQMNSLKSEDTAVYYCRLVGPAGYWGQGTQVTVSS
Result: 42.45
